System: A549
measurement.notes: Antiproliferative activity against human A549 cells assessed as reduction in cell growth by MTT assay
Format: functional, cell-based
Below, each entry is listed alongside its reported pIC50.
The meaning of pIC50 here: minus log10 of the concentration in molar units.

Example molecules with recorded pIC50:
molecule: Cc1c2n(c3ccc(F)cc13)C(O)(C(F)(F)F)C=C2c1ccccc1 (stereo not drawn)
pIC50: 5.20
//
molecule: OC1(C(F)(F)F)C=C(c2ccccc2)c2cc3ccccc3n21 (stereo not drawn)
pIC50: 4.93

Next:
# input For the molecule Cc1c2n(c3ccccc13)C(O)(C(F)(F)F)C=C2c1ccccc1 (stereo not drawn) , what pIC50 is on record?
# output 5.90

* * *

Tested on: A549
measurement.notes: Antiproliferative activity against human A549 cells assessed as reduction in cell viability incubated for 24 hrs by MTT assay
Assay type: functional, cell-based
condition.label: A549, 24 h
# log10(IC50) per record follows
Note: values are log10 of IC50 expressed in µM.

molecule: COc1ccc(C2c3ccccc3-c3nc(C)cc(C(F)(F)F)c32)cc1OC (stereo unspecified)
reading: 1.29

# input Item O=C1/N=C2/c3ccccc3C(=O)C23C(=C(c2cccs2)N2CCc4cccc3c42)C(=O)c2ccccc21 (stereo unspecified) has what recorded log10(IC50)?
# output 0.96

# input One more molecule: COc1ccccc1C1=C2C(=O)c3ccccc3C(=O)/N=C3/c4ccccc4C(=O)C23c2cccc3c2N1CC3 (stereo unspecified)
# output 0.93

# input Ok, now COc1ccc(C2c3ccccc3-c3nc(C)cc(C(F)(F)F)c32)cc1 (stereo unspecified)
# output 1.09

# input Next record, please: CN1C(=O)C2(N=C(c3ccccc3)N3CCc4cc(Br)cc2c43)c2ccccc21 (stereo unspecified)
# output 0.00

* * *

Tested on: HeLa
measurement.notes: Antiproliferative activity against human Hela cells by MTT assay
Assay type: functional, cell-based
As shown below, each of these compounds has a reported pIC50 value.
Units for pIC50: none; it is -log10 of a concentration expressed in mol/L.

smiles.data: CCOc1cccc(-c2ccc3c(c2)c2ccccc2n3C)c1C(=O)Nc1cccc2cccnc12
system: HeLa
pIC50: 5.02

# input HeLa / pIC50 / `O=C(Nc1cccc2cccnc12)c1ccccc1-c1ccc2c(c1)c1ccccc1n2-c1ccccc1` : value?
# output 4.43

* * *

Test system: HeLa
measurement.notes: Cytotoxicity against human HeLa cells assessed as reduction in cell viability incubated for 48 hrs by SRB assay
Format: functional, cell-based
measured.quantity: IC50 (µg/mL)
Number only, in µg/mL; omit the unit.

molecule: COc1cccc2c1C(=O)c1c(O)c3c(c(O)c1C2=O)C[C@@](O)(C(=O)CO)C[C@@H]3O[C@H]1C[C@H](N)[C@H](O)[C@H](C)O1.Cl [DOXORUBICIN HYDROCHLORIDE]
measured.quantity: IC50
reading: 12.6
//
molecule: CCOC(=O)c1sc(-c2ccc(OCC(C)C)c(C(Nc3ccc(C(F)(F)F)cc3I)P(=O)(OCC)OCC)c2)nc1C (centres undefined)
measured.quantity: IC50
reading: 12.3
//
molecule: CCOC(=O)c1sc(-c2ccc(OCC(C)C)c(C(Nc3ccc(OC)cc3)P(=O)(OCC)OCC)c2)nc1C (centres undefined)
measured.quantity: IC50
reading: 10.7

Okay, now this molecule:
# input Any idea what its IC50 is? The molecule is CCOC(=O)c1sc(-c2ccc(OCC(C)C)c(C(Nc3ccc([N+](=O)[O-])cc3)P(=O)(OCC)OCC)c2)nc1C (centres undefined)
# output 9.6

* * *

measurement.notes: Antioxidant activity assessed as DPPH radical scavenging activity
Type: functional
measured.quantity: pIC50
// pIC50 is dimensionless: -log10 of concentration (M)

molecule: O=C1O[C@H]([C@@H](O)CO)C(O)=C1O
reading: 4.56

# input Which measured pIC50 value corresponds to CCc1cc(C(=O)c2ccccc2Cl)c(NC(c2cccs2)c2c(O)ccc3ccccc23)s1 (centres undefined) ?
# output 4.49

# input Try this molecule next: CCc1cc(C(=O)c2ccccc2Cl)c(NC(c2cc(OC)c(OC)c(OC)c2)c2c(O)ccc3ccccc23)s1 (centres undefined)
# output 4.48

# input Same lookup for CCc1cc(C(=O)c2ccccc2Cl)c(NC(c2ccc(F)cc2)c2c(O)ccc3ccccc23)s1 (centres undefined) , please.
# output 4.53

* * *

Test system: HepG2
measurement.notes: Growth inhibition of human HepG2 cells measured for 48 hrs by SRB assay
Format: functional
measured.quantity: GI50

Example results:
molecule: CCc1cc(C(=O)c2ccccc2Cl)c(NC(c2ccc(F)cc2)c2c(O)ccc3ccccc23)s1 (stereo not given)
system: HepG2
GI50: < 10 mg/L
--
molecule: CCc1cc(C(=O)c2ccccc2Cl)c(NC(c2cc(OC)c(OC)c(OC)c2)c2c(O)ccc3ccccc23)s1 (stereo not given)
system: HepG2
GI50: < 10 mg/L
--
molecule: O=C1O[C@H]([C@@H](O)CO)C(O)=C1O [ASCORBIC ACID]
system: HepG2
GI50: < 10 mg/L
--
molecule: COc1cccc2c1C(=O)c1c(O)c3c(c(O)c1C2=O)C[C@@](O)(C(=O)CO)C[C@@H]3O[C@H]1C[C@H](N)[C@H](O)[C@H](C)O1 [DOXORUBICIN]
system: HepG2
GI50: < 10 mg/L

Please look at the following molecule next.
# input API: value(readout=GI50, system=HepG2) for record CCc1cc(C(=O)c2ccccc2Cl)c(NC(c2cccs2)c2c(O)ccc3ccccc23)s1 (stereo not given)
# output < 10 mg/L

Entry source: ChEMBL document CHEMBL6134800
